# Tested on: SKBR3 (PI3Kα-Wild Type) cell line
# Procedure details: HTRF phospho-AKT(S473) cell assay in SKBR3 cells
# Type: cell-based, human
# Condition context: Homo sapiens, SK-BR-3; HTRF phospho-AKT(S473), SKBR3 (PI3Kα-Wild Type) cells, 2 hours compound incubation, PDGF-BB stimulated
Assay readout: IC50

// below: answered compounds
{"columns": ["Smiles record", "IC50"],
 "data": [
  ["Cc1cc([C@@H](C)Nc2ccc(Cl)nc2C(=O)NS(C)(=O)=O)c2nc(N3CC[C@H](N(C)c4ncc(Cl)cn4)C3)n(C)c(=O)c2c1", "≥ 5 µM"],
  ["Cc1cc([C@@H](C)Nc2ccc(Cl)nc2C(=O)NS(C)(=O)=O)c2nc(-c3ccc4nc(C)oc4c3)n(C)c(=O)c2c1", "1 to 5 µM"]
]}

Measured on SKBR3 (PI3Kα-Wild Type) cell line, Cc1cc([C@@H](C)Nc2ccc(Cl)nc2C(=O)NS(C)(=O)=O)c2nc(N3CCN(c4cnccn4)CC3)n(C)c(=O)c2c1 has a documented IC50 of 1 to 5 µM

Measured on SKBR3 (PI3Kα-Wild Type) cell line, Cc1cc([C@@H](C)Nc2ccc(Cl)nc2C(=O)NS(C)(=O)=O)c2nc(N3Cc4cnc(C)cc4C3)n(C)c(=O)c2c1 has a documented IC50 of 1 to 5 µM

Measured on SKBR3 (PI3Kα-Wild Type) cell line, Cc1cc([C@@H](C)Nc2ccc(Cl)nc2C(=O)NS(C)(=O)=O)c2nc(N3C[C@@H]4[C@H](C3)[C@H]4c3nc(C)n(C(F)F)n3)n(C)c(=O)c2c1 has a documented IC50 of ≥ 5 µM

Measured on SKBR3 (PI3Kα-Wild Type) cell line, [2H]C([2H])([2H])n1nccc1C1CCN(c2nc3c([C@@H](C)Nc4ccc(Cl)nc4C(=O)NS(C)(=O)=O)cc(C)cc3c(=O)n2C)CC1 has a documented IC50 of 1 to 5 µM
